# MEASURED_ON: L. donovani TryR (Leishmania donovani, UniProt P39050)
# Construct: endogenous in cells; host or cells: L. donovani-iRFP (LV9) axenic amastigotes, crude cell extract
# Sequence (P39050 whole entry): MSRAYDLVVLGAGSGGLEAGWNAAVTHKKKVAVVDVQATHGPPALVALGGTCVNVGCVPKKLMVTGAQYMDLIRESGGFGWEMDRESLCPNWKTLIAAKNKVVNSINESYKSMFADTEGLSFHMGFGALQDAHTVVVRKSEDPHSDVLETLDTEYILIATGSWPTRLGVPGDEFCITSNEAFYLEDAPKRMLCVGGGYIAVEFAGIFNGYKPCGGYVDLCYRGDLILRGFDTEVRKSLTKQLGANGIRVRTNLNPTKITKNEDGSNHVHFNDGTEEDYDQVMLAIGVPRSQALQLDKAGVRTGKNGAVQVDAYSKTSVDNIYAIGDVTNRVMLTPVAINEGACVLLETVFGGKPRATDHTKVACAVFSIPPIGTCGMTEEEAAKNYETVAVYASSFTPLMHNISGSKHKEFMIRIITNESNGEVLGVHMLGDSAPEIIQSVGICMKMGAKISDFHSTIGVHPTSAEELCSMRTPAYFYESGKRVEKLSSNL
# ASSAY_METHOD_TEXT: biochemical
# STUDY_CONDITIONS: Lineweaver-Burk double reciprocal plot, varying T[S]2
MEASUREMENT_KIND: Type of inhibition

[
  {
    "MOLECULE": "O=C1NN(c2ccc(F)c(Cl)c2)C(=O)C1=Cc1ccc([N+](=O)[O-])o1 [PYZD-4409]",
    "ENDPOINT_RESULT": "Competitive"
  },
  {
    "MOLECULE": "N#Cc1ccc([N+](=O)[O-])o1 [5-nitro-2-furonitrile, 5-Nitro-2-furonitrile]",
    "ENDPOINT_RESULT": "Competitive"
  },
  {
    "MOLECULE": "O=C1OCCN1/N=C/c1ccc([N+](=O)[O-])o1 [Furazolidone]",
    "ENDPOINT_RESULT": "Uncompetitive"
  },
  {
    "MOLECULE": "O=C1CN(/N=C/c2ccc([N+](=O)[O-])o2)C(=O)N1 [Nitrofurantoin]",
    "ENDPOINT_RESULT": "Uncompetitive"
  },
  {
    "MOLECULE": "CC(=O)OC(OC(C)=O)c1ccc([N+](=O)[O-])o1 [5-nitro-2-furaldehide diacetate, 5-Nitro-2-furaldehyde diacetate]",
    "ENDPOINT_RESULT": "Uncompetitive"
  },
  {
    "MOLECULE": "NC(=O)N/N=C/c1ccc([N+](=O)[O-])o1 [Nitrofurazone]",
    "ENDPOINT_RESULT": "Uncompetitive"
  },
  {
    "MOLECULE": "CC1CS(=O)(=O)CCN1/N=C/c1ccc([N+](=O)[O-])o1 (stereo not shown) [Nifurtimox]",
    "ENDPOINT_RESULT": "Uncompetitive"
  }
]

Values were extracted from paper PMC12344264.
